Form field: normalized growth (one value per entry).
Assay explanation: chemical genetic growth profiling, strain panel (AID 1159580);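 also: tested at 20 µM; growth read once vehicle control cultures reached saturation at 30 °C; 1 = growth at the plate median or of vehicle wells; lower values mean less growth of the strain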
Experimental context: S. cerevisiae deletion strains, growth OD, locus YJL092W, strain hpr5, active compounds read low
Out of some 5,500 compounds screened, about 2,000 (36%) were called active. Another 18% or so got no clear call; they are omitted. Some of the results follow.
Metric: normalized growth

{"Molecule": "COc1ccc2c(c1)c(CC(=O)OCC(=O)O)c(C)n2C(=O)c1ccc(Cl)cc1", "Assay value": 0.981}
{"Molecule": "CC(C)(Sc1cc(C(C)(C)C)c(O)c(C(C)(C)C)c1)Sc1cc(C(C)(C)C)c(O)c(C(C)(C)C)c1", "Assay value": 1.01}
{"Molecule": "Nc1ccc(S(=O)(=O)Nc2cnc3ccccc3n2)cc1", "Assay value": 0.996}
{"Molecule": "Cc1cc(O)cc(=O)o1", "Assay value": 0.987}
{"Molecule": "C#C[C@]1(O)CCC2C3CCC4=CC(=O)CC[C@@H]4C3CC[C@@]21CC (some centres undefined)", "Assay value": 0.998}
{"Molecule": "C#C[C@]1(O)CCC2C3CCC4=CC(=O)CC[C@@H]4C3CC[C@@]21C (some centres undefined)", "Assay value": 0.976}
{"Molecule": "Nc1ccc(S(=O)(=O)Nc2ccnn2-c2ccccc2)cc1", "Assay value": 0.984}
{"Molecule": "OC(CCN1CCCCC1)(c1ccccc1)C1CC2C=CC1C2 (centres undefined)", "Assay value": 1.01}
{"Molecule": "C[C@@H]1CC[C@H]2[C@@H](C)C(=O)O[C@@H]3O[C@@]4(C)CC[C@@H]1[C@]32OO4", "Assay value": 0.859}
{"Molecule": "CC1=NS(=O)(=O)c2cc(Cl)ccc2N1", "Assay value": 0.986}
{"Molecule": "C#C[C@]1(OC(C)=O)CCC2C3CCC4=CC(=O)CC[C@@H]4C3CC[C@@]21C (some centres undefined)", "Assay value": 1}
{"Molecule": "C#C[C@]1(O)CCC2C3CCC4=C(CCC(=O)C4)C3CC[C@@]21C (some centres undefined)", "Assay value": 0.986}
{"Molecule": "COc1ccc2[nH]cc(CCN)c2c1", "Assay value": 0.999}
{"Molecule": "OC(CCN1CCCC1)(c1ccccc1)C1CCCCC1 (centres undefined)", "Assay value": 0.969}

----------
Assay explanation: chemical genetic growth profiling, strain panel (AID 1159580);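 also: tested at 20 µM; growth read once vehicle control cultures reached saturation at 30 °C; 1 = growth at the plate median or of vehicle wells; lower values mean less growth of the strain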
Experimental context: S. cerevisiae deletion strains, growth OD, locus YAL021C, strain ccr4, active compounds read low
Screen size: about 5,500 compounds; about 2,000 (36%) were called active. Inconclusive results (about 18%) are left out. The list shows a part of the results.
Returns: string. Value is Y if measured normalized growth is below 1, and N if it is greater than or equal to it.

{"Molecule": "Clc1ccccc1C(c1ccccc1)(c1ccccc1)n1ccnc1", "Cat": "Y"}
{"Molecule": "CCC(C)C(NC)C(=O)O (configuration not stated)", "Cat": "N"}
{"Molecule": "Cc1cc(C(C)(C)C)c(O)c(C(C)(C)C)c1", "Cat": "N"}
{"Molecule": "OC(CCN1CCCCC1)(c1ccccc1)C1CCCCC1 (configuration not stated)", "Cat": "Y"}
{"Molecule": "O=c1[nH]cc(F)c(=O)[nH]1", "Cat": "Y"}
{"Molecule": "CC1OC(=O)C(C(C)C)NC(=O)C(C(C)C)OC(=O)C(C(C)C)NC(=O)C(C)OC(=O)C(C(C)C)NC(=O)C(C(C)C)OC(=O)C(C(C)C)NC(=O)C(C)OC(=O)C(C(C)C)NC(=O)C(C(C)C)OC(=O)C(C(C)C)NC1=O (configuration not stated)", "Cat": "Y"}
{"Molecule": "N=C(N)c1ccc(OCCCCCOc2ccc(C(=N)N)cc2)cc1", "Cat": "Y"}
{"Molecule": "O=c1oc2cc(O)ccc2s1", "Cat": "N"}

----------
Assay explanation: chemical genetic growth profiling, strain panel (AID 1159580);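 also: tested at 20 µM; growth read once vehicle control cultures reached saturation at 30 °C; 1 = growth at the plate median or of vehicle wells; lower values mean less growth of the strain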
Experimental context: S. cerevisiae deletion strains, growth OD, locus YOR265W, strain rbl2
Among all 5,500 compounds or so, about 2,000 (36%) were called active. About 18% were inconclusive and are not listed. Cut-off read from the data, not from the text of the source: active = normalized growth mostly below about 0.91 (no sharp cut-off); inconclusive = no clear call, values can overlap the other calls; inactive = mostly above about 0.92. The list shows a part of the results. Where a SMILES comes first, the peptide text is derived from it. Bridges are numbered along the chain shown (N, C = ends). [ ]: non-standard residue; d: D form. The star is where a group is joined. ξ: configuration not given here. ξDab(CH2SO3H) = NC(CCNCS(=O)(=O)O)C(=O)O; Heptanoyl(6-Me) = CC(C)CCCCC(=O)*; Dab = NCC[CH](N)C(=O)O
Labels: 1 (yes) (active), 0 (no) (inactive)

{"Compound": "Nc1ccccc1C(=O)CC(N)C(=O)O (configuration not stated)", "Cat": "0 (no)"}
{"Compound": "COc1cccc2c1C(=O)c1c(O)c3c(c(O)c1C2=O)C[C@@](O)(C(=O)CO)C[C@@H]3O[C@H]1C[C@H](N)[C@@H](O)[C@H](C)O1", "Cat": "1 (yes)"}
{"Compound": "C/C=C1\\[C@H]2C=C(C)C[C@]1(N)c1ccc(=O)[nH]c1C2", "Cat": "0 (no)"}
{"Compound": "CC1=NS(=O)(=O)c2cc(Cl)ccc2N1", "Cat": "0 (no)"}
{"Compound": "C[C@H]1[C@H](C)CC[C@]2(CO)CC[C@]3(C)C(=CCC4[C@@]5(C)CC[C@H](O)C(C)(C)C5CC[C@]43C)[C@H]12 (some centres not stated)", "Cat": "0 (no)"}
{"Compound": "CC(=O)O[C@H]1CC[C@@]2(C)C(CC[C@]3(C)C2CC=C2C4CC(C)(C)CC[C@]4(C)CC[C@]23C)C1(C)C (some centres not stated)", "Cat": "0 (no)"}
{"Compound": "Cc1ccc(N=CN(C)C=Nc2ccc(C)cc2C)c(C)c1", "Cat": "0 (no)"}
{"Compound": "CC1(C)CCC2(C(=O)O)CCC3(C)C(=CCC4C5(C)CCC(O)C(C)(C)C5C(O)CC43C)C2C1 (configuration not stated)", "Cat": "0 (no)"}
{"Compound": "C[C@@H]1C(=O)O[C@H]2[C@H]1CC[C@@]1(C)C=CC(=O)[C@@]3(C)O[C@@]213", "Cat": "0 (no)"}
{"Compound": "CCCOc1ccccc1-c1nc2n[nH]nc2c(=O)[nH]1", "Cat": "0 (no)"}
{"Compound": "COc1c(-c2coc3cc4c(cc3c2=O)CC(O)C(C)(C)O4)ccc2c1C=CC(C)(C)O2 (configuration not stated)", "Cat": "0 (no)"}
{"Compound": "CC(=O)NC(C(=O)O)C(C)(C)SN=O (configuration not stated)", "Cat": "0 (no)"}
{"Compound": "Cc1ccc(S(=O)(=O)NC(=O)NN2CC3CCCC3C2)cc1 (configuration not stated)", "Cat": "0 (no)"}
{"Compound": "Cc1cc(C(C)(C)C)c(O)c(C(C)(C)C)c1", "Cat": "0 (no)"}
{"Compound": "COc1ccc2c(c1)c(CC(=O)OCC(=O)O)c(C)n2C(=O)c1ccc(Cl)cc1", "Cat": "0 (no)"}
{"Compound": "CC(=O)NCc1c(I)c(NC(C)=O)c(I)c(C(=O)O)c1I", "Cat": "0 (no)"}
{"Compound": "N=C(N)c1ccc(OCCCCCOc2ccc(C(=N)N)cc2)cc1", "Cat": "0 (no)"}
{"Compound": "CCC(C)C(=O)O[C@H]1[C@H](O)C2C(CN3CC(C)CCC3[C@@]2(C)O)C2C[C@]34O[C@]5(O)C(OC(=O)C(C)(O)CC)CC[C@@]3(C)C5C(OC(C)=O)[C@@H](OC(C)=O)C4[C@@]21O (some centres not stated)", "Cat": "0 (no)"}
{"Compound": "COc1cccc2c1C(=O)c1c(O)c3c(c(O)c1C2=O)C[C@@](O)(C(=O)CO)C[C@@H]3OC1C[C@H](N)[C@H](O)[C@H](C)O1 (some centres not stated)", "Cat": "1 (yes)"}
{"Compound": "CCC(C)C1NC(=O)C(CCNCS(=O)(=O)O)NC(=O)C(NC(=O)C(CCNCS(=O)(=O)O)NC(=O)C(NC(=O)C(CCNCS(=O)(=O)O)NC(=O)CCCCC(C)C)C(C)O)CCNC(=O)C(C(C)O)NC(=O)C(CCNCS(=O)(=O)O)NC(=O)C(CCNCS(=O)(=O)O)NC(=O)C(C(C)CC)NC1=O (configuration not stated) ({Heptanoyl(6-Me)}-[ξDab(CH2SO3H)]T[ξDab(CH2SO3H)][Dab][ξDab(CH2SO3H)]II[ξDab(CH2SO3H)][ξDab(CH2SO3H)]T; lactam 4-C; configuration not given here)", "Cat": "0 (no)"}
{"Compound": "CC(C)(Sc1cc(C(C)(C)C)c(O)c(C(C)(C)C)c1)Sc1cc(C(C)(C)C)c(O)c(C(C)(C)C)c1", "Cat": "0 (no)"}
{"Compound": "Cc1ccnc(NS(=O)(=O)c2ccc(N)cc2)n1", "Cat": "0 (no)"}
{"Compound": "O=C(CNC(=O)c1ccc(Cl)cc1)NO", "Cat": "0 (no)"}
{"Compound": "COC(=O)C[C@H]1C(C)(C)C2(O)OC34CC2C(=O)[C@]1(C)C3CC[C@]1(C)C4=CC(=O)O[C@H]1c1ccoc1 (some centres not stated)", "Cat": "0 (no)"}
{"Compound": "N#CC(O[C@@H]1O[C@H](CO[C@@H]2O[C@H](CO)[C@@H](O)[C@H](O)[C@H]2O)[C@@H](O)[C@H](O)[C@H]1O)c1ccccc1 (some centres not stated)", "Cat": "0 (no)"}
{"Compound": "CC(=O)O[C@@H]1CC[C@@]2(C)C(CC[C@]3(C)C2CC=C2C4CC(C)(C)CC[C@]4(C(=O)O)CC[C@]23C)C1(C)C (some centres not stated)", "Cat": "0 (no)"}
{"Compound": "CCOP(=S)(OCC)Oc1nc(Cl)c(Cl)cc1Cl", "Cat": "0 (no)"}

The origin of these recorded values is PubChem BioAssay AID1159580.
